Data origin: PubChem BioAssay (NCI)

Tested on: SF-539 CNS
method-notes: NCI-60 one-dose screen, 48 h (100 = growth as untreated, 0 = no growth, -100 = all killed)
condition: 10 µM unless noted
Compounds without any hit were thinned out: in the full panel of roughly 83,000, 20% have a hit.
reported-endpoint: growth (%)
Numbers only, in %.

Consider the worked cases shown below.
| compound | growth [%] |
| --- | --- |
| CC(O)CN(CC(C)O)N(CC(C)O)CC(C)O (stereo unspecified) | 105 |
| COc1ccc(Cn2cc3c(c2-c2ccccc2)CCc2cnoc2-3)cc1N | -13.1 |
| O=C(/C=C/c1ccc(Cl)cc1)c1ccc(Cl)cc1 | 104 |
| CCOC(=O)C1=C(C(F)(F)F)NC(=S)NC1CN1C(=O)c2ccccc2C1=O (stereo unspecified) | 104 |
| Cc1ccc(C(=O)Nc2ccc(CN3CCN(C)CC3)c(C(F)(F)F)c2)cc1C#Cc1cnc(N)c2ccc(C#N)cc12 | 51.8 |
| CC[n+]1c(C)ccc2cc(C)ccc21 | 110 |
| CC1(C)NCCC[C@]2(C)[C@H]3CC=C4[C@@H]5C[C@](C)(COC(=O)c6ccccc6C(=O)O)CC[C@]5(C)CC[C@@]4(C)[C@]3(C)CC[C@@H]12 | 66.6 |
| O=C(CCC(=O)N(CCO)CCO)N(CCO)CCO | 101 |

Here are 3 compounds. What values of growth were reported for them?
1. O=C1C(Cl)=C(SC2=NCCN2)C(=O)c2ccccc21
2. CCCCCCC(=O)C(C)C
3. CCN(CC)CCOC(=O)c1cccnc1

1: 105; 2: 104; 3: 102

----------
Exercise: state measured growth for each of the molecules provided.
Tested on: A549/ATCC NSCLC
method-notes: NCI-60 one-dose screen, 48 h (100 = growth as untreated, 0 = no growth, -100 = all killed)
condition: 10 µM unless noted
About 83,000 compounds went through this panel and 20% of them were active in at least one assay; those are over-represented in the sample as a whole.
Give bare numbers, in %.

| molecule | reported-endpoint | meas-value |
| --- | --- | --- |
| CCOc1ccc(/C=N/NC(=O)c2cccc3ccccc23)cc1OCC | growth | 96.6 |

Here are 5 molecules. What values of growth were reported for them?
1. Ic1ccc(SSc2ccc(I)cc2)cc1
2. CCC(C)C1NC(=O)C(CC(C)C)NC(=O)C(C)NC(=O)C(C(C)C)NC(=O)C(CCCCN)NC(=O)C(CC(C)C)NC(=O)C(C(C)C)NC(=O)[C@H](C)NC(=O)C(C(C)CC)NC(=O)C(CCCN=C(N)N)NC(=O)C(CCCCN)NC(=O)C(CCCN=C(N)N)NC(=O)C(CCCCN)NC(=O)C([C@H](C)CC)NC(=O)C(CCCCN)NC1=O (stereo partly drawn)
3. COc1cc2cn3c4ccc(O)cc4[nH]c(=O)c3c2cc1OC
4. CC(C)OC(=O)c1ccc2n1CCCc1cnc(Nc3ccccc3)nc1-2
5. O=C(/C=C1\C(=O)N(Cc2ccc([N+](=O)[O-])cc2)c2ccccc21)c1ccc(OCCN2CCCCC2)cc1

[74.1, 22.3, 10.6, 74.4, 48.2]

Here are 2 molecules. What values of growth were reported for them?
1. C[C@H]1C[C@@H](n2cnc3c(N)nccc32)[C@H](O)[C@@H]1O
2. O=C(NCCO)C(F)(F)F

[98.6, 98.4]

----------
System: UACC-62 melanoma
method-notes: NCI-60 one-dose screen, 48 h (100 = growth as untreated, 0 = no growth, -100 = all killed)
condition: 10 µM unless noted
This is part of a sample that, as a whole, favours compounds with a hit. Of some 83,000 tested, about 20% had one in any assay. Active and inactive are the calls of the source. The calls were made as follows: active = growth percent below 10; inactive = the rest.
reported-endpoint: growth

Consider the worked cases shown below.
| compound | growth |
| --- | --- |
| CC(CCN1CCN(CCC(C)CC(C)(C)C)C1CC(C)CC(C)(C)C)CC(C)(C)C (stereo unspecified) | 103% (inactive) |
| Nc1nc2c(c3cnccc13)C(c1cccc(Cl)c1)Cc1cnccc1-2 (stereo unspecified) | 26.7% (inactive) |
| O=S(=O)(O)c1ccc2c(c1)Sc1cc(S(=O)(=O)O)ccc1O2 | 96% (inactive) |

Here are 8 compounds. What values of growth were reported for them?
1. CCCC(=O)Nc1ccccc1C(=O)O
2. CCOP1(=O)CC(C)=C(Cl)C(P(=O)(O)O)C1 (stereo unspecified)
3. COC(=O)c1ccc2[nH]c(O)c(C(=Nc3ccc(N(C)C(=O)CN4CCN(C)CC4)cc3)c3ccc(C)cc3)c2c1
4. O=C1CSC(c2ccccc2Cl)N1c1nnc(-c2ccncc2)o1 (stereo unspecified)
5. CC(C)(C)c1ccc(OCCOC(=O)CBr)cc1
6. COc1ccc(CN2C(=O)/C(=C\C(=O)c3ccc(OCCN4CCCCC4)cc3)c3ccccc32)cc1
7. Cc1ccc(C(=O)Nc2ccc(CN3CCN(C)CC3)c(C(F)(F)F)c2)cc1C#Cc1cnc(N)c2ccc(C#N)cc12
8. CCCCCCCCCC[N+](C)(C)N

1: 105% (inactive); 2: 95.5% (inactive); 3: -19% (active); 4: 92.3% (inactive); 5: 93.6% (inactive); 6: 73.5% (inactive); 7: 25.4% (inactive); 8: 106% (inactive)

----------
System: OVCAR-8 ovarian
method-notes: NCI-60 one-dose screen, 48 h
condition: 10 µM unless noted
The panel holds about 83,000 compounds, 20% with a hit somewhere; the sample as a whole holds those more often. Calls of active or inactive are those of the source. How the source made its calls: active means growth percent below 10; inactive means the rest.
Assign a class; possible classes are active, inactive

| compound | qualitative-label |
| --- | --- |
| C/C=C/C/C=C/[C@H](C)C[C@H](O)[C@@H]1C[C@@H]2O[C@H]2/C=C/[C@@H]2OC(C)(C)O[C@H]2/C=C/C[C@H](C)CC(=O)O1 | inactive |
| O=C(CCl)c1ccc2c(c1)CCCC2 | inactive |
| O=C(CCC(=O)N(CCO)CCO)N(CCO)CCO | inactive |

Record lookup: outcome of this test for `C/C(CCC(=O)O)=N/Nc1ccc([N+](=O)[O-])cc1` ?
inactive

Record lookup: outcome of this test for `COC(=O)c1ccc2[nH]c(O)c(C(=Nc3ccc(N(C)C(=O)CN4CCN(C)CC4)cc3)c3cccc(OC)c3)c2c1` ?
inactive

Record lookup: outcome of this test for `COc1ccc2c(c1)/C(=C1/S/C(=N/c3nnc(C)s3)NC1=O)C(=O)N2Cc1ccc(Br)cc1` ?
inactive

Record lookup: outcome of this test for CC(=O)OCC1O[C@@H](OC(C)=O)[C@@H](NC(=O)NS(=O)(=O)c2ccccc2)C(OC(C)=O)[C@@H]1OC(C)=O (some centres not stated) ?
inactive

Record lookup: outcome of this test for `O=C(NCCCl)Nc1nccnc1OCc1ccc(F)cc1` ?
inactive

Record lookup: outcome of this test for `O=Nc1c(-c2c(O)[nH]c3cc(Br)ccc23)[nH]c2ccccc12` ?
active

----------
System: DU-145 prostate
method-notes: NCI-60 one-dose screen, 48 h
condition: 10 µM unless noted
Compounds without any hit were thinned out: in the full panel of roughly 83,000, 20% have a hit. Activity calls are given as the source filed them. How the source made its calls: active means growth percent below 10; inactive means the rest.
Assign a class; possible classes are true (active), false (inactive)

The following molecules have reported results that may help.
| molecule | qualitative-label |
| --- | --- |
| CCOC(=O)c1cc(C(=O)c2ccc(Br)cc2)n2cc(C)cc(C)c12 | false |
| COC(=O)[C@H](Cc1cn(C)cn1)NC(=O)[C@@H](NC(=O)Nc1cc(C(F)(F)F)cc(C(F)(F)F)c1)C(C)(C)C | true |
| CC(C)(C)C(=O)CCCCCCCC/C=C/CCCC(O)c1ccco1 (stereo not given) | false |

Record lookup: outcome of this test for NNC(=S)N1N=C(c2cc3ccccc3o2)CC1c1c[nH]c2ccccc12 (stereo not given) ?
false

Record lookup: outcome of this test for `Cc1ccc(NC(=O)CCl)cc1Cl` ?
false

Record lookup: outcome of this test for `CCN(CC)CCCNc1c2ccc(Cl)cc2nc2ccc(OC)cc12` ?
true

Record lookup: outcome of this test for `CCOc1ccc(Br)cc1/C=C(\C#N)c1ccc([N+](=O)[O-])cc1` ?
false

Record lookup: outcome of this test for `CC(C)(C)OC(=O)N1C/C(=C\c2ccccc2)C(=O)/C(=C/c2ccccc2)C1` ?
false

Record lookup: outcome of this test for `COc1cc(-c2nc3c(c(C)nc4c3nnn4-c3ccccc3)c(=O)o2)cc(OC)c1OC` ?
false

Record lookup: outcome of this test for `COc1cc2ncnc(-n3ncc4cc(NC(=O)Nc5ccc(Cl)c(Cl)c5)ccc43)c2cc1OC` ?
true

----------
System: SK-OV-3 ovarian
method-notes: NCI-60 one-dose screen, 48 h (100 = growth as untreated, 0 = no growth, -100 = all killed)
condition: 10 µM unless noted
The panel holds about 83,000 compounds, 20% with a hit somewhere; the sample as a whole holds those more often.
reported-endpoint: growth (%)
One number for each entry, in %.

| molecule | reported-endpoint | meas-value |
| --- | --- | --- |
| C[C@H]1C[C@@H](n2cnc3c(N)nccc32)[C@H](O)[C@@H]1O | growth | 117 |
| CCOC(=O)c1sc(NS(=O)(=O)c2ccccc2)nc1C | growth | 106 |
| CC(=O)N(N=O)c1ccc([N+](=O)[O-])cc1Cl | growth | 66.9 |

Here are 7 molecules. What values of growth were reported for them?
1. O=C(N/N=C/c1coc2ccccc2c1=O)c1cc2oc(-c3ccccc3)cc2[nH]1
2. CCCOC(=O)c1c(C)n(C)c2scc[n+]12
3. CCOC(=O)c1cc(C(=O)c2ccc(Br)cc2)n2cc(C)cc(C)c12
4. Cc1ccc(S(=O)(=O)Nc2cccc(Cn3c(=O)[nH]c4ccc(Oc5ncccn5)cc4c3=O)c2)cc1
5. COc1cc2cc3cc4cc(OC)c(OC)cc4c(C)[n+]3cc2cc1OC (tested in a mixture with another compound)
6. CCCCCCC(C)N(CC(C)(C)O)C(=O)c1ccc([N+](=O)[O-])cc1 (stereo not given)
7. O=C(N/N=C/c1ccccc1Cl)c1cccc2ccccc12

1. 102
2. 93.9
3. 86.2
4. 81.2
5. 107
6. 96.3
7. 98.6
